# Tested on: Escherichia coli
# Protocol summary: Antibacterial activity against Escherichia coli after 18 hrs by broth dilution method
# Format: functional, organism-based

Molecule	Tgt	IC50
O=C1CSC(c2ccc(F)cc2)N1c1ccccc1 (stereo unspecified)	Escherichia coli	> 30 µg/mL
O=C1CSC(c2ccccc2)N1c1ccc(Cl)cc1 (stereo unspecified)	Escherichia coli	> 30 µg/mL
COc1ccc(C2SCC(=O)N2c2ccccc2)cc1 (stereo unspecified)	Escherichia coli	> 30 µg/mL
O=C1CSC(c2ccccc2)N1c1ccccc1 (stereo unspecified)	Escherichia coli	> 30 µg/mL
O=C1CSC(c2ccc(Br)cc2)N1c1ccccc1 (stereo unspecified)	Escherichia coli	> 30 µg/mL
CC1(C)S[C@@H]2[C@H](NC(=O)[C@H](N)c3ccccc3)C(=O)N2[C@H]1C(=O)O	Escherichia coli	1.46 µg/mL
COc1ccc(N2C(=O)CSC2c2ccccc2)cc1 (stereo unspecified)	Escherichia coli	> 30 µg/mL
O=C1CSC(c2ccccc2)N1c1ccc(F)cc1 (stereo unspecified)	Escherichia coli	> 30 µg/mL
Cc1ccc(C2SCC(=O)N2c2ccc(F)cc2)cc1 (stereo unspecified)	Escherichia coli	> 30 µg/mL
O=C1CSC(c2ccc(Cl)cc2)N1c1ccccc1 (stereo unspecified)	Escherichia coli	> 30 µg/mL
NC[C@H]1O[C@H](O[C@H]2[C@H](O)[C@@H](O[C@H]3O[C@H](CO)[C@@H](O)[C@H](N)[C@H]3O)[C@H](N)C[C@@H]2N)[C@H](O)[C@@H](O)[C@@H]1O	Escherichia coli	1.62 µg/mL
